Biological target: T1, huCLL1-Q244-Avi-Tev-His (human, UniProt Q5QGZ9 65-265)
T1 construct: extracellular domain; also called CLL-1 K244Q
T1 sequence (looked up): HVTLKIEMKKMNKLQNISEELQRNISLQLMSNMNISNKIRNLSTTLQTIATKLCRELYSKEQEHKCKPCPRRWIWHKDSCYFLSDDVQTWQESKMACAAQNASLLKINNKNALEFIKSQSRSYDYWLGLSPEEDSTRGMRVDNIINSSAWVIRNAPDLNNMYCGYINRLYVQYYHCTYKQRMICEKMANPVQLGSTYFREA
Assay: BLI
attributeMeasured: binding result

binder: Polypeptide No. 154 (scFv, V domains shown, scFv) VH: QVQLVQSGAEVKKPGASVKVSCKASGGTFSSYGVTWVRQAPGQGLEWMGWINPNTGGTDYAQNFQGRVTMTRDTSTSTVYMELSSLRSEDTAVYYCAGEVGVGGYDAFDIWGQGTTVTVSS VL: DIQMTQSPSSLSASVGDRVTITCRASQGISNWLAWYQQKPGKAPKLLIYAASSLQSGVPSRFSGSGSGTDFTLTISSLQPEDFATYYCQQSYSIPLTFGGGTKVEIKR
endpointValue: binds

binder: Polypeptide No. 159 (scFv, V domains shown, scFv) VH: QVQLVQSGAEVKKPGASVKVSCKASGYSFTANYIHWVRQAPGQGLEWMGIINPSGGSTSYAQKFQGRVTMTRDTSTSTVYMELSSLRSEDTAVYYCARGNYGDYVEDWGQGTLVTVSS VL: DIQMTQSPSSLSASVGDRVTITCRASQSISSWLAWYQQKPGKAPKLLIYDASNLETGVPSRFSGSGSGTDFTLTISSLQPEDFATYYCQQSYGTPLTFGGGTKVEIKR
endpointValue: binds
